B1: PhoQ; a variant is named by its letters at X, in order, P23837 (parent)
chain: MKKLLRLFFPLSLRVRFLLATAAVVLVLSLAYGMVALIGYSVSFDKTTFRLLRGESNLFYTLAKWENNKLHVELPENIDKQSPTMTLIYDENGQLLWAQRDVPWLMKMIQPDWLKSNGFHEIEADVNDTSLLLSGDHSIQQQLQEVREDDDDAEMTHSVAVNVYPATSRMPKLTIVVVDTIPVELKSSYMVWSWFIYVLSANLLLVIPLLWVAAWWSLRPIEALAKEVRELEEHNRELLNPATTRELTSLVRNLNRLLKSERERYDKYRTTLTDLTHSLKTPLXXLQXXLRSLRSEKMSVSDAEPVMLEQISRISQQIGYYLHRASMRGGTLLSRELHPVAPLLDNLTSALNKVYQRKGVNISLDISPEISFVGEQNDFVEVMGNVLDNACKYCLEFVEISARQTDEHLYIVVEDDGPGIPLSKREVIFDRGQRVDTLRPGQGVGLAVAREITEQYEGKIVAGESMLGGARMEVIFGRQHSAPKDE

# Variants of: B1
# measurementDescription: enrichment ratio after two sorts for PhoP signalling (ratio (wild type AVST 3.29)); higher = more functional
# assaySetup: with PhoP (E. coli)
The full ranking holds about 140,000 sequences; the median of “enrichment ratio after two sorts for PhoP signalling” is about 0, and the highest 2% start at about 11. This is one part of a sample in which the highest values are shown more often than they occur.
Entries and their enrichment ratio values follow.

As a guide, the following entries are already answered.
[[record]]
variantnotation = "NNTY"
readoutname = "enrichment ratio"
endpointresult = "≤ 0.25"

[[record]]
variantnotation = "WEER"
readoutname = "enrichment ratio"
endpointresult = "≤ 0.25"

[[record]]
variantnotation = "MDHD"
readoutname = "enrichment ratio"
endpointresult = "≤ 0.25"

[[record]]
variantnotation = "AQQY"
readoutname = "enrichment ratio"
endpointresult = "≤ 0.25"

[[record]]
variantnotation = "HATY"
readoutname = "enrichment ratio"
endpointresult = "≤ 0.25"


Using known records, supply enrichment ratio for `MTSV`
0.634

Answer with the recorded enrichment ratio of `ATVM` only.
6.8

Please report enrichment ratio for the following variant: `SGPA`
≤ 0.25

Give me measured enrichment ratio, please, for this variant: `AKQI`
≤ 0.25

Please give measured enrichment ratio of the following entry: `AQST`
5.3

Identify enrichment ratio associated with the variant `AEQP`
≤ 0.25
